Overview of recorded normalized growth for various compounds
TEST_DESCRIPTION: chemical genetic growth profiling, strain panel (AID 1159580);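 note: tested at 20 µM; growth read once vehicle control cultures reached saturation at 30 °C; 1 = growth at the plate median or of vehicle wells; lower values mean less growth of the strain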
COND: S. cerevisiae deletion strains, growth OD, locus YNL067W, strain RPL9B, active compounds read low
Screen size: about 5,500 compounds; about 2,000 (36%) were called active. Roughly 18% stayed inconclusive and do not appear here. The list shows a part of the results. Where a SMILES comes first, the peptide text is derived from it. Bridges are numbered along the chain shown (N, C = ends). [ ]: non-standard residue; d: D form. The star is where a group is joined. Octanoyl(6-Me) = CCC(C)CCCCC(=O)*; Orn = NCCC[CH](N)C(=O)O; Dab = NCC[CH](N)C(=O)O
ENDPOINT_LABEL: normalized growth

>>> test_result("CC(C)CC1NC(=O)C(CCCN)NC(=O)C(C(C)C)NC(=O)C2CCCN2C(=O)C(Cc2ccccc2)NC(=O)C(CC(C)C)NC(=O)C(CCCN)NC(=O)C(C(C)C)NC(=O)C2CCCN2C(=O)C(Cc2ccccc2)NC1=O (configuration not stated) (cyclo(FPV[Orn]LFPV[Orn]L); configuration not given here)")
"0.994 (inactive)"
>>> test_result("CCC(C)CCCCC(=O)NC(CCN)C(=O)NC(C(=O)NC(CCN)C(=O)NC1CCNC(=O)C(C(C)O)NC(=O)C(CCN)NC(=O)C(CCN)NC(=O)C(CC(C)C)NC(=O)C(Cc2ccccc2)NC(=O)C(CCN)NC1=O)C(C)O (configuration not stated) ({Octanoyl(6-Me)}-[Dab]T[Dab][Dab][Dab]FL[Dab][Dab]T; lactam 4-C; configuration not given here)")
"1.01 (inactive)"

---

TEST_DESCRIPTION: chemical genetic growth profiling, strain panel (AID 1159580)
COND: S. cerevisiae deletion strains, growth OD, locus YGL086W, strain mad1, active compounds read low
About 2,000 (36%) of roughly 5,500 compounds were called active. Another 18% or so got no clear call; they are omitted. The list shows a part of the results.
Overview of recorded normalized growth for various compounds
ENDPOINT_LABEL: normalized growth

>>> test_result("CN(C)CCc1c[nH]c2ccc(CS(=O)(=O)N3CCCC3)cc12")
0.988
>>> test_result("Cc1ccc(N(CC2=NCCN2)c2cccc(O)c2)cc1")
1.02
>>> test_result("Cc1cc(C(C)(C)C)cc(C)c1CC1=NCCN1")
1
>>> test_result("CC1=NN(c2ccccc2)C(=O)C1")
0.955
>>> test_result("COc1c2c(cc3c1OCO3)C13C=C[C@H](OC)CC1N(C2)CC3O (stereo partly specified)")
1
>>> test_result("Cc1cc(C(C)(C)C)c(O)c(C)c1CC1=NCCN1")
1

---

TEST_DESCRIPTION: chemical genetic growth profiling, strain panel (AID 1159580)
COND: S. cerevisiae deletion strains, growth OD, locus YER015W, strain faa2
The whole screen tested about 5,500 compounds, of which about 2,000 (36%) were called active. Not shown: some 18% with an inconclusive outcome. Rule as the data show it: active = normalized growth mostly below about 0.91 (no sharp cut-off); inconclusive = no clear call, values can overlap the other calls; inactive = mostly above about 0.92. Some of the results follow.
Classes used: active, inactive

>>> class("OCc1c[nH]c2ccccc12")
"inactive"
>>> class("COc1cc(NS(=O)(=O)c2ccc(N)cc2)ncn1")
"inactive"
>>> class("CC(=O)CC1CCCCN1 (stereo not drawn)")
"inactive"
>>> class("CN1CCN(CC(=O)N2c3ccccc3C(=O)Nc3cccnc32)CC1")
"inactive"
>>> class("CNC(Cc1c[nH]c2ccccc12)C(=O)O (stereo not drawn)")
"inactive"
>>> class("OC(c1cc(C(F)(F)F)nc2c(C(F)(F)F)cccc12)C1CCCCN1 (stereo not drawn)")
"inactive"
>>> class("CN1C(=O)CCS(=O)(=O)C1c1ccc(Cl)cc1 (stereo not drawn)")
"inactive"
>>> class("CC1=NN(c2ccccc2)C(=O)C1")
"inactive"
>>> class("CC1(C)S[C@@H]2[C@H](NC(=O)[C@H](C(=O)O)c3cccs3)C(=O)N2[C@H]1C(=O)O")
"inactive"
>>> class("Cc1onc(-c2ccccc2Cl)c1C(=O)N[C@@H]1C(=O)N2[C@@H]1SC(C)(C)[C@@H]2C(=O)O")
"inactive"
>>> class("Cc1onc(-c2c(Cl)cccc2Cl)c1C(=O)N[C@@H]1C(=O)N2[C@@H]1SC(C)(C)[C@@H]2C(=O)O")
"inactive"
>>> class("NCCc1cc(O)c(O)cc1O")
"active"
>>> class("O=C(O)[C@H](O)[C@@](O)(Cc1ccc(O)cc1)C(=O)O")
"inactive"
>>> class("CC(=O)NS(=O)(=O)c1ccc(NC(=O)c2ccccc2C(=O)O)cc1")
"inactive"
>>> class("COc1cccc(OC)c1C(=O)N[C@@H]1C(=O)N2[C@@H]1SC(C)(C)[C@@H]2C(=O)O")
"inactive"
>>> class("Cc1onc(-c2ccccc2)c1C(=O)NC1C(=O)N2[C@@H]1SC(C)(C)[C@@H]2C(=O)O (stereo partly drawn)")
"inactive"
>>> class("COc1c2ccoc2cc2oc(C)cc(=O)c12")
"inactive"
>>> class("CC[C@H]1CN2CCc3cc(OC)c(OC)cc3C2C[C@@H]1CC1NCCc2cc(OC)c(OC)cc21 (stereo partly drawn)")
"inactive"
>>> class("Cc1c(NC(=O)c2cccnc2)c(=O)n(-c2ccccc2)n1C")
"inactive"
>>> class("Cc1ccc(N(CC2=NCCN2)c2cccc(O)c2)cc1")
"inactive"
>>> class("O=C(NC1CCCCC1)NC1CCCCC1")
"inactive"
>>> class("CC1(C)S[C@@H]2[C@H](NC(=O)Cc3ccccc3)C(=O)N2[C@H]1C(=O)O")
"inactive"
>>> class("COc1ccc2c(c1)[C@]13CCCC[C@H]1[C@H](C2)N(C)CC3")
"inactive"

---

TEST_DESCRIPTION: chemical genetic growth profiling, strain panel (AID 1159580);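 note: tested at 20 µM; growth read once vehicle control cultures reached saturation at 30 °C; 1 = growth at the plate median or of vehicle wells; lower values mean less growth of the strain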
COND: S. cerevisiae deletion strains, growth OD, locus YKR001C, strain vps1, active compounds read low
The whole screen tested about 5,500 compounds, of which about 2,000 (36%) were called active. Roughly 18% stayed inconclusive and do not appear here. The list shows a part of the results.
ENDPOINT_LABEL: normalized growth

>>> test_result("NCC1OC(OC2C(CO)OC(OC3C(O)C(N)CC(N)C3OC3OC(CO)C(O)CC3N)C2O)C(N)C(O)C1OC1OC(CO)C(O)C(O)C1O (stereo not given)")
0.991
>>> test_result("COc1cccc(OC)c1C(=O)N[C@@H]1C(=O)N2[C@@H]1SC(C)(C)[C@@H]2C(=O)O")
0.973
>>> test_result("COc1cccc(O)c1O")
1.02
>>> test_result("Cc1c(NC(=O)c2cccnc2)c(=O)n(-c2ccccc2)n1C")
0.991
>>> test_result("COc1cc2c(cc1OC)[C@@]13CCN4CC5=CCOC6CC(=O)N2C1[C@H]6[C@H]5C[C@H]43 (stereo not given in full)")
1.01
>>> test_result("CCc1cccc2c3c([nH]c12)C(CC)(CC(=O)O)OCC3 (stereo not given)")
0.98
>>> test_result("CN1C(=O)CCS(=O)(=O)C1c1ccc(Cl)cc1 (stereo not given)")
1.01
>>> test_result("Cc1onc(-c2ccccc2)c1C(=O)NC1C(=O)N2[C@@H]1SC(C)(C)[C@@H]2C(=O)O (stereo not given in full)")
1.01
>>> test_result("COc1cc(O)cc(OC)c1OC")
1.01
>>> test_result("Cc1onc(-c2ccccc2Cl)c1C(=O)N[C@@H]1C(=O)N2[C@@H]1SC(C)(C)[C@@H]2C(=O)O")
1.03

---

TEST_DESCRIPTION: chemical genetic growth profiling, strain panel (AID 1159580);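 note: tested at 20 µM; growth read once vehicle control cultures reached saturation at 30 °C; 1 = growth at the plate median or of vehicle wells; lower values mean less growth of the strain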
COND: S. cerevisiae deletion strains, growth OD, locus YDR297W, strain sur2, active compounds read low
The whole screen tested about 5,500 compounds, of which about 2,000 (36%) were called active. Not shown: some 18% with an inconclusive outcome. Some of the results follow.
Mark t only for normalized growth values smaller than 1; exact matches and larger values are f.

>>> class("COc1ccc(C(=O)c2ccccc2)c(O)c1O")
"t"
>>> class("C[C@]12CCC3C(CC[C@H]4C[C@H](OS(=O)(=O)O)CC[C@]34C)C1CCC2=O (stereo partly drawn)")
"f"
>>> class("CCOc1ccc(C(=O)c2ccc(O)c(O)c2O)cc1")
"t"

---

TEST_DESCRIPTION: chemical genetic growth profiling, strain panel (AID 1159580);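 note: tested at 20 µM; growth read once vehicle control cultures reached saturation at 30 °C; 1 = growth at the plate median or of vehicle wells; lower values mean less growth of the strain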
COND: S. cerevisiae deletion strains, growth OD, locus YIR030C, strain dcg1, active compounds read low
Screen size: about 5,500 compounds; about 2,000 (36%) were called active. About 18% were inconclusive and are not listed. This is one part of the list.
Overview of recorded normalized growth for various compounds
ENDPOINT_LABEL: normalized growth

>>> test_result("CCOc1cccc(C(=O)c2ccc(O)c(O)c2O)c1")
0.958
>>> test_result("COc1cc2c(cc1OC)[C@@H]1C(=O)c3ccc4c(c3O[C@@H]1CO2)CC(C(C)C)O4 (stereo not given in full)")
1
>>> test_result("C=C(C)[C@H]1Cc2c(ccc3c2O[C@@H]2COc4cc(OC)c(OC)cc4[C@@H]2C3=O)O1")
1.02
>>> test_result("NCC1OC(OC2C(CO)OC(OC3C(O)C(N)CC(N)C3OC3OC(CO)C(O)CC3N)C2O)C(N)C(O)C1OC1OC(CO)C(O)C(O)C1O (stereo not given)")
0.988
>>> test_result("O=C(O)c1cc([N+](=O)[O-])ccc1NCCCc1ccccc1")
0.918
